Listing of entries alongside the reported TGI.
Tested on: SK-OV-3 ovarian
assay: NCI tumour cell line growth inhibition, 48 h
measuredQuantity: TGI (µM)

{"columns": ["compound", "testTarget", "endpointUnit", "modifier", "recordedNumber"],
 "data": [
  ["CC[CH2][Sn]([Cl])([Cl])[CH2]CC.Oc1ccccc1C=NCCN=Cc1ccccc1O", "SK-OV-3 ovarian", "µM", "=", 35.1],
  ["COC1=CC2(C=CC1=O)c1cc(OC)c(OC)cc1CCN2C(=O)c1ccccc1 (stereo not given)", "SK-OV-3 ovarian", "µM", ">", 100],
  ["O=C(/C(=C/c1cccc([N+](=O)[O-])c1)c1ccccc1)c1ccccc1", "SK-OV-3 ovarian", "µM", "=", 10.2],
  ["Fc1ccc(-c2nn3ncccc3c2-c2ccnc(Nc3ccc4c(c3)OCCO4)n2)cc1", "SK-OV-3 ovarian", "µM", ">", 25],
  ["CC(C)(C)C1=CC(=C(c2ccc(-c3c4nc(c(-c5ccc(C(=C6C=C(C(C)(C)C)C(=O)C(C(C)(C)C)=C6)c6cc(C(C)(C)C)c(O)c(C(C)(C)C)c6)cc5)c5ccc([nH]5)c(-c5ccc(C(=C6C=C(C(C)(C)C)C(=O)C(C(C)(C)C)=C6)c6cc(C(C)(C)C)c(O)c(C(C)(C)C)c6)cc5)c5nc(c(-c6ccc(C(=C7C=C(C(C)(C)C)C(=O)C(C(C)(C)C)=C7)c7cc(C(C)(C)C)c(O)c(C(C)(C)C)c7)cc6)c6ccc3[nH]6)C=C5)C=C4)cc2)c2cc(C(C)(C)C)c(O)c(C(C)(C)C)c2)C=C(C(C)(C)C)C1=O", "SK-OV-3 ovarian", "µM", ">", 100]
]}

----------
System: UO-31 renal
assay: NCI tumour cell line growth inhibition, 48 h; in the data active = GI50 below about 0.43 µM; inactive = the rest
Classes used: yes = active, no = inactive

{"columns": ["compound", "testTarget", "answerLabel"],
 "data": [
  ["C=C1C(=O)O[C@H]2[C@H]1CC/C(COC(=O)c1cc3ccccc3s1)=C\\CC[C@@]1(C)O[C@@H]21", "UO-31 renal", "no"],
  ["CCc1oc2ccccc2c1C(=O)c1cc(I)c(O)c(I)c1", "UO-31 renal", "no"],
  ["O=C1/C(=C/c2ccc(O)cc2)CSc2ccc(Cl)cc21", "UO-31 renal", "no"],
  ["C/C(=N\\Nc1ccc(Cl)cn1)c1ccccn1", "UO-31 renal", "yes"],
  ["O=S1(=O)N(CCNc2nccc(-c3c(-c4cccc(O)c4)nc4sccn34)n2)CCN1Cc1ccccc1", "UO-31 renal", "no"],
  ["Cc1ccc2[nH]c(C(=O)NN3C(=O)C(C)SC34CCCC(C)C4)c(-c3ccccc3)c2c1 (stereo not given)", "UO-31 renal", "no"],
  ["O=C(/C(=C/c1cccc([N+](=O)[O-])c1)c1ccccc1)c1ccccc1", "UO-31 renal", "no"],
  ["COc1ccc(-c2nnc(COc3ccc(NC(=O)Nc4ccc(Cl)c(C(F)(F)F)c4)cc3F)o2)cc1", "UO-31 renal", "no"],
  ["COc1ccc(OC)c(C(=O)c2oc3ccc(Br)cc3c2N)c1", "UO-31 renal", "no"],
  ["Cc1ccc(C(=O)Nc2ccc(CN3CCN(C)CC3)c(C(F)(F)F)c2)cc1C#Cc1cnc(N)c2ccccc12", "UO-31 renal", "yes"]
]}
